SYSTEM: SERCA2a (Cavia porcellus, UniProt A0A286XD73)
Sequence (A0A286XD73 1-997): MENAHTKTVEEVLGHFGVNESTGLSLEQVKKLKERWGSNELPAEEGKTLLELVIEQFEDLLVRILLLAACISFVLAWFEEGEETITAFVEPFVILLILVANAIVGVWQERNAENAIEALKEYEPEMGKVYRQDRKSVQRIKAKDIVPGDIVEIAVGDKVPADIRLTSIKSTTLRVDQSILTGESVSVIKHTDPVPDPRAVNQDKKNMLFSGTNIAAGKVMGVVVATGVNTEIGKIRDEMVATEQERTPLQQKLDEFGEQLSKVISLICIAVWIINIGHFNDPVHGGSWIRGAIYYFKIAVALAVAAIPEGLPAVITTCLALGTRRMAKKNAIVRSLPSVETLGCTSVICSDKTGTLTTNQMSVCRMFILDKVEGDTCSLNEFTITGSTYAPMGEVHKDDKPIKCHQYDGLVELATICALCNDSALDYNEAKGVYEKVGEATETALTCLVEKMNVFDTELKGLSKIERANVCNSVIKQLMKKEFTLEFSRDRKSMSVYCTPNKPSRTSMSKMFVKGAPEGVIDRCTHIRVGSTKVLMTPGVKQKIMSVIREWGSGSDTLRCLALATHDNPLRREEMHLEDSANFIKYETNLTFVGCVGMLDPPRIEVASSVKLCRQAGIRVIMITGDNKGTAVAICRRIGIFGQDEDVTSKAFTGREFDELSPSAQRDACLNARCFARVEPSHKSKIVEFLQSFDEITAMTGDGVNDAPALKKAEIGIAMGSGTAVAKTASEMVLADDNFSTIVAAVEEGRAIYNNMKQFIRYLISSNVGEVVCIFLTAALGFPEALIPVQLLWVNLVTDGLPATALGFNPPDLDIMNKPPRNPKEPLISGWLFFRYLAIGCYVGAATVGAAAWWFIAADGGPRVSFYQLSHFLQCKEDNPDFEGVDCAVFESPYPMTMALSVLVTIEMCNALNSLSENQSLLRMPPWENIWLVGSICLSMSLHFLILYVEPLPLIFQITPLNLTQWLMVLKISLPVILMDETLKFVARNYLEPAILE
PROCEDURE TEXT: SERCA2a ATPase activity in heart-derived SR microsomes from normal guinea-pig
Assay type: biochemical
MEASUREMENT PARAMETERS: compound 200 nM, read-out: Kd Ca2+ (nM) mean ± SD
Lab note: cut-off is 400 nM. Strictly less in Kd is satisfied. Exactly 400 nM or more is not satisfied.

Some solved entries appear below for comparison.
C[C@]12CC=C(CCC3CCNCC3)CC1[C@@H](O)C[C@@H]1[C@@H]2CC[C@]2(C)C(=O)CC[C@@H]12 (stereo partly drawn) [CVie208, hydroiodide]; satisfied
C[C@]12CC/C(=C/CCC(=O)O)CC1[C@@H](O)C[C@@H]1[C@@H]2CC[C@]2(C)C(=O)CC[C@@H]12 (stereo partly drawn); not satisfied

Here is another molecule to look at.
Strictly below 400 nM in Kd? C[C@]12CC/C(=C/CCC(=O)O)CC1[C@H](O)C[C@@H]1[C@@H]2CC[C@]2(C)C(=O)CC[C@@H]12 (stereo partly drawn)
not satisfied

---

SYSTEM: SERCA2a (Cavia porcellus)
PROCEDURE TEXT: SERCA2a ATPase activity in heart-derived SR microsomes from normal guinea-pig
Type: biochemical
MEASUREMENT PARAMETERS: compound 100 nM
Description: SERCA2a ATPase Activity in Heart-Derived SR Microsomes from Normal Quinea-Pig SERCA2a activity was measured in vitro as ^32P-ATP hydrolysis at different Ca^2+ concentrations (100-4000 nM) in the absence and presence of the tested compounds, as described (Micheletti R. et al., Am J Card 2007, 99:24A-32A). […] Dose-response curves were fitted by using a sigmoidal equation and the activity at the maximal velocity (Vmax) and the Kd for Ca^2+ were calculated (Synergy Software KaleidaGraph 3.6). […]
READOUT LABEL: % change in Ca2+ Kd vs control (negative = decrease)
Units required after the number.

// % change in Ca2+ Kd vs control (negative = decrease) lookup, key: C[C@]12CC[C@H](CCC3CCNCC3)CC1[C@@H](CO)[C@@H](O)[C@@H]1[C@@H]2CC[C@]2(C)C(=O)CC[C@@H]12 (stereo partly drawn)
−19.1%

Same lookup for C[C@]12CC[C@H](CCC3CCNCC3)CC1[C@@H](CO)C(=O)[C@@H]1[C@@H]2CC[C@]2(C)C(=O)CC[C@@H]12 (stereo partly drawn) , please.
0%

Proceed to C[C@]12CC/C(=C/CCC(=O)O)CC1[C@@H](O)C[C@@H]1[C@@H]2CC[C@]2(C)C(=O)CC[C@@H]12 (stereo partly drawn)
−7%

---

SYSTEM: SERCA2a (Cavia porcellus)
PROCEDURE TEXT: SERCA2a ATPase activity in heart-derived SR microsomes from normal guinea-pig
Assay type: biochemical
MEASUREMENT PARAMETERS: read-out: Kd Ca2+ (nM) mean ± SD, compound 200 nM
Method: SERCA2a ATPase Activity in Heart-Derived SR Microsomes from Normal Quinea-Pig SERCA2a activity was measured in vitro as ^32P-ATP hydrolysis at different Ca^2+ concentrations (100-4000 nM) in the absence and presence of the tested compounds, as described (Micheletti R. et al., Am J Card 2007, 99:24A-32A). […] Dose-response curves were fitted by using a sigmoidal equation and the activity at the maximal velocity (Vmax) and the Kd for Ca^2+ were calculated (Synergy Software KaleidaGraph 3.6). […]
Below is a list of entries, each paired with its recorded Kd value.
Respond numerically; units are nM and should not be typed.

C[C@]12CC[C@H](CCC3CCNCC3)CC1[C@@H](CO)[C@@H](O)[C@@H]1[C@@H]2CC[C@]2(C)C(=O)CC[C@@H]12 (some centres unmarked); 361

Which Kd is listed for CCOC(=O)CCC[C@H]1CC[C@]2(C)C3CC[C@]4(C)C(=O)CCC4C3C[C@H](O)C2C1 (some centres unmarked) ?
674

Query C[C@]12CC/C(=C/CC3CNC3)CC1[C@@H](O)C[C@@H]1[C@@H]2CC[C@]2(C)C(=O)CC[C@@H]12 (some centres unmarked) next
667

Record: CCOC(=O)CCCCC[C@H]1CC[C@]2(C)C3CC[C@]4(C)C(=O)CCC4C3C[C@H](O)C2C1 (some centres unmarked)
619

Request: C[C@]12CC[C@H](CCC3CNC3)CC1[C@@H](CO)[C@@H](O)C1C2CC[C@]2(C)C(=O)CCC12 (some centres unmarked)
355

---

SYSTEM: SERCA2a (Cavia porcellus, UniProt A0A286XD73)
PROCEDURE TEXT: SERCA2a ATPase activity in heart-derived SR microsomes from normal guinea-pig
Type: biochemical
MEASUREMENT PARAMETERS: compound 10 nM
READOUT LABEL: % change in Ca2+ Kd vs control (negative = decrease) (%)
Report only the number, with the unit % understood.

Observe how each entry below is paired with its result.
CCOC(=O)C[C@H]1CC[C@]2(C)C3CC[C@]4(C)C(=O)CCC4C3C[C@H](O)C2C1 (stereo partly drawn); −12
C[C@]12CC/C(=C\CCC(=O)O)CC1[C@H](O)C[C@@H]1[C@@H]2CC[C@]2(C)C(=O)CC[C@@H]12 (stereo partly drawn); −8

Here is the next item to consider.
Returns the measured % change in Ca2+ Kd vs control (negative = decrease) for the input compound. Input: C[C@]12CC/C(=C/CCC(=O)O)CC1[C@@H](O)C[C@@H]1[C@@H]2CC[C@]2(C)C(=O)CC[C@@H]12 (stereo partly drawn)
−4

---

SYSTEM: SERCA2a (Cavia porcellus)
PROCEDURE TEXT: SERCA2a ATPase activity in heart-derived SR microsomes from normal guinea-pig
Assay type: biochemical
MEASUREMENT PARAMETERS: compound 200 nM, read-out: Kd Ca2+ (nM) mean ± SD
READOUT LABEL: Kd (nM)
Answer with a number only, understood to be in nM.

C[C@]12CC/C(=C\CCC(=O)O)CC1[C@H](O)C[C@@H]1[C@@H]2CC[C@]2(C)C(=O)CC[C@@H]12 (stereo partly drawn) [CVie203]; 393
C[C@]12CC[C@H](CCC3CCNCC3)CC1[C@@H](CO)C(=O)[C@@H]1[C@@H]2CC[C@]2(C)C(=O)CC[C@@H]12 (stereo partly drawn) [CVie411]; 407

Kd lookup needed for CCOC(=O)C[C@H]1CC[C@]2(C)C3CC[C@]4(C)C(=O)CCC4C3C[C@H](O)C2C1 (stereo partly drawn) [CVie213] , thanks.
407
